Provenance of the data: PubChem BioAssay

method: modulators of CIT2-GFP expression in yeast, confirmation, S. cerevisiae, GFP fusion, cherry picks, mother/daughter gates (AID 2274)
stated conditions: S. cerevisiae CIT2-GFP strain, flow cytometry, 3 h; measured here: daughter cell gate; at 10 µM; stronger effect = higher value
experimental endpoint: GFP response, % of DMSO (%)
Provide the reading as a plain figure in %.

Give reported GFP response, % of DMSO value for `O=C(NCc1cccnc1)c1cnc2n(c1=O)CCS2`
101

Give reported GFP response, % of DMSO value for `Cc1[nH][nH]c(=O)c1C(c1ccc(-c2ccc(Cl)cc2)o1)c1c(C)[nH][nH]c1=O`
102

Give reported GFP response, % of DMSO value for `O=C(Nc1nc(-c2ccc(F)cc2)cs1)c1cnccn1`
98.3

Give reported GFP response, % of DMSO value for CCNC(=O)/C(C#N)=C/c1c(N2CC(C)OC(C)C2)nc2ccccn2c1=O (stereo unspecified)
103

Give reported GFP response, % of DMSO value for Cc1ccc(N(C(=O)CCCC(=O)Nc2ccccn2)C(C(=O)NC2CCCC2)c2ccc(O)cc2)cc1C (stereo unspecified)
108

Give reported GFP response, % of DMSO value for `CSc1ccc(/C=C/C(=O)c2ccc(NC(=O)C(C)C)cc2)cc1`
93.2

Give reported GFP response, % of DMSO value for COc1cc(C(O)P(=O)(OCC(C)C)OCC(C)C)cc(OC)c1OC (stereo unspecified)
100

Give reported GFP response, % of DMSO value for `O=C(OCc1ccco1)c1ccc(S(=O)(=O)N2CCCCC2)cc1`
99.2

Give reported GFP response, % of DMSO value for CN=C(NC)SC1CC(=O)N(c2ccccc2)C1=O (stereo unspecified)
93.2

Give reported GFP response, % of DMSO value for `Cc1cc(O)c(C(=O)/C=C/c2ccc(Cl)cc2)c(=O)o1`
104

Give reported GFP response, % of DMSO value for `Cc1cccc(C(=O)Nc2ccc(O)cc2)c1`
101
